B1: tRNA (parent)
chain: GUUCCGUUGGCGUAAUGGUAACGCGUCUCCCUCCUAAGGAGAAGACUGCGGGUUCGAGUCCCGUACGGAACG

Variants of: B1
Experiment: yeast fitness relative to wild type (ratio to wild type); higher = fitter; tRNA-Arg(CCU), competitive growth, 37 C, YPD
Variants at the floor of the assay were thinned out.
Endpoint label: yeast fitness
Format: numeric value only, no unit, no commentary.

Worked set:
Sequence data: GUUCCGUUGGCGUAAUGGUAACGCCUCUCCCUCCUAAGGAGAAGACUGCGAGUUCGAGUCCCGUACGGAACG
yeast fitness: 1.01
--
Sequence data: GUUCCGUUGGCGUAACGGUAACGCGUCUCCCUCCUAAGGAGAAGACUGCGGGUUCGAGUCCCAUACGGAACG
yeast fitness: 0.884
--
Sequence data: GUUCCGUUGGCGUAAUGGUAACGCGUCUCCCCCCUACGGAGAAGACUGCGGGUUCGAGUCCCGUACGGAACG
yeast fitness: 0.771
--
Sequence data: GUUCCGUUGGCGUAAUGGUAACGCGUUUCCCUCCUAAGGAGGAGACUGCGGGUUCGAGUCCCGUACGGAACG
yeast fitness: 0.695
--
Sequence data: GUUCCGAUGGCGUAAUGGUAACGCGUCUCCCUCCUAAGGAGAAGAGUGCGGGUUCGAGUCCCGUACGGAUCG
yeast fitness: 0.642

Which measured yeast fitness value corresponds to `GAUCCGUUGGCGUAAUGGUAACGCGUCUCCCUCCUAAGGAGAAGACUGCGGGUUCGAGUCCCGCACGGAACG` ?
0.938

What measured yeast fitness goes with `GUUCCGUUGGCGUAAUGAUUACGCGUCUGCCUCCUAUGGAGAAGACUGCGGGUUCGAGUCCCGUACGGAACG` ?
0.563

Which yeast fitness reading was recorded for the variant `GUUCCGUUGGCGUAAUGGUAACGCCUCUCCCUCCUAAGAAGAAGACUGCGGGUUCGAGUCCCGUACGGAACG` ?
0.787

Please give the measured yeast fitness for this variant: `GUUCCGUUGGCGUAAUGGUAAGGCGUCUCCCUCCUAAGGAGAAGACUGCGGGUUCGAGUCCCCUACGGAACG`
0.623

I would be grateful if you could share the reported yeast fitness for `GUUCCGUUGGCGUAAUGGUAACGCGUCUCCCUCCUAAGGACAAGACUGCGGGUUAGAGUCCCGUACGGAGCG` .
0.551

# query: yeast fitness of entry `GUUCCGUUGGCGUAAUGGUAACGCGUCUCCCUCCUAAGGAGUAGACUGCGGGUUUGAGUCCCGUACGGAACG`
0.709

The measured values listed here are drawn from the RNAGym collection of RNA variant scans (doi:10.1126/science.aae0568).
